# ASSAYED TARGET: T1, mouse DKK1 (R&D Systems) (mouse, UniProt O54908 32-272)
# T1 construct: Bought protein
# T1 sequence (looked up): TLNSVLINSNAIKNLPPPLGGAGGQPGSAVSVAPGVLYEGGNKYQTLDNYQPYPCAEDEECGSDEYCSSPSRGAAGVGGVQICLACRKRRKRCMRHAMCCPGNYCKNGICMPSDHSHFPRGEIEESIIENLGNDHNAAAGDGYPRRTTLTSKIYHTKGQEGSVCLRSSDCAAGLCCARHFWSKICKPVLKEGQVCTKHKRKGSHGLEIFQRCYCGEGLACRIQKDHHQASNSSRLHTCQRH
# PROCEDURE DETAILS: solution equilibrium titration (SET), ECL (BioVeris), Fab
VALUE KIND: Kd (nM)
# value in nM; strip the unit string

Past entries and their recorded results:
Lab note: measured Kd of MOR04945 (Fab, V domains shown) VH: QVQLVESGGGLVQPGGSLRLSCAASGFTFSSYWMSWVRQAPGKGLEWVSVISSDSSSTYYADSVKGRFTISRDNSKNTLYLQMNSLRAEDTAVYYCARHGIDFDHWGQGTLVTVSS VL: DIALTQPASVSGSPGQSITISCTGTSSDLGGYNYVSWYQQHPGKAPKLMIYDVNNRPSGVSNRFSGSKSGNTASLTISGLQAEDEADYYCQTYDQIKLSAVFGGGTKLTVLG was 0.074

Lab note: measured Kd of MOR04920 (Fab, V domains shown) VH: QVQLVESGGGLVQPGGSLRLSCAASGFTFSSYWMSWVRQAPGKGLEWVSSIEHKDAGYTTWYAAGVKGRFTISRDNSKNTLYLQMNSLRAEDTAVYYCARHGIDFDHWGQGTLVTVSS VL: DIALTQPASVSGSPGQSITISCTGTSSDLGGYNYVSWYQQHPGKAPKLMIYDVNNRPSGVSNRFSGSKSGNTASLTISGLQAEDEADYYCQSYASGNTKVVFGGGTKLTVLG was 0.04

Shift focus to the following entry.
Lab note: measured Kd of MOR04946 (Fab, V domains shown) VH: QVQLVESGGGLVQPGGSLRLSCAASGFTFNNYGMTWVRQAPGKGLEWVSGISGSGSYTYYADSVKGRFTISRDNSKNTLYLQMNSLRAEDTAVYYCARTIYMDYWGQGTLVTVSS VL: DIVLTQSPATLSLSPGERATLSCRASQNLFSPYLAWYQQKPGQAPRLLIYGASNRATGVPARFSGSGSGTDFTLTISSLEPEDFAVYYCQQYLTLPLTFGQGTKVEIKR was 0.041
